Ref: patent US20200377501A1

molecular target: EGFR T790M/L858R Ba/F3 cell line (Homo sapiens, UniProt P00533, T790M/L858R, cells depend on it); construct: The constructs were shuttled into the retroviral vector JP1540 using the BD Creator™ System (BD Biosciences); test: Ba/F3 cell proliferation (MTS assay); assay type: cell-based, murine; conditions: read-out: Ba/F3 cellular activity (EC50) T790M/L858R + Cetuximab (1 μg/mL); presence of 1 μg/mL cetuximab
Sequence (P00533 whole entry T790M/L858R): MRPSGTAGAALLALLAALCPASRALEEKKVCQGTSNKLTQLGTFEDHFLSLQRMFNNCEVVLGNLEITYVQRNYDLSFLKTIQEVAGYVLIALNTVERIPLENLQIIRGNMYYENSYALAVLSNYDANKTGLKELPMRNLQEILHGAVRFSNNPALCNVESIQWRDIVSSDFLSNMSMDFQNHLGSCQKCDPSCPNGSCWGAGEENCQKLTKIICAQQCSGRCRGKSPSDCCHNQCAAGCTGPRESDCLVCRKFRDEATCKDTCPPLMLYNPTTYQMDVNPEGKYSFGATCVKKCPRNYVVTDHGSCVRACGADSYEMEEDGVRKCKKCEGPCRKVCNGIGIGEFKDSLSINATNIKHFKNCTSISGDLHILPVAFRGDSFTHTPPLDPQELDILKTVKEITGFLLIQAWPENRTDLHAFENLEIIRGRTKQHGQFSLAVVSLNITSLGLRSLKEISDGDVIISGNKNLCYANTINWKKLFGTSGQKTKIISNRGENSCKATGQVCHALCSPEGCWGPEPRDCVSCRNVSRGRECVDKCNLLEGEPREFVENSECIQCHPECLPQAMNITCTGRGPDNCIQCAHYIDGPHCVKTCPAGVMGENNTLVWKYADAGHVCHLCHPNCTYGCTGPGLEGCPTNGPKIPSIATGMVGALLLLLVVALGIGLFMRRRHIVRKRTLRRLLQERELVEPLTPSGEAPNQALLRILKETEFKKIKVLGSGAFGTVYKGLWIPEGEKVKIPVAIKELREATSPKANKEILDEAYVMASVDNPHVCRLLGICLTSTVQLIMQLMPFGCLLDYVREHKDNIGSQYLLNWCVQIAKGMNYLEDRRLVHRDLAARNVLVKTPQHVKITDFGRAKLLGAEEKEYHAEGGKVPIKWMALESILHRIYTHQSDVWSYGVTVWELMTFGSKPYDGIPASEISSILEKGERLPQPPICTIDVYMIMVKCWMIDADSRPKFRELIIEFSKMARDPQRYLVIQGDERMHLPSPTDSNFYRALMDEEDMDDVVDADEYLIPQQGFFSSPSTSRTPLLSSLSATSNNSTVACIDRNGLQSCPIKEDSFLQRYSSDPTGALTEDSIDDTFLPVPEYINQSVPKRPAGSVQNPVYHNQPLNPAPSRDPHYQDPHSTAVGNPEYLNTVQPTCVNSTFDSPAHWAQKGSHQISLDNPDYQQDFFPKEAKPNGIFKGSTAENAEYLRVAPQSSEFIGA
REPORTED METRIC: EC50

Check out these entries, answers already filled in.
>  <MOLECULE>
CN1CCC(n2cc(-c3ccc4c(c3)C(=O)N(Cc3cc(F)cc(F)c3)c3cc(F)ccc3N4)cn2)CC1 [I-24]

>  <EC50>
≥ 750 nM

$$$$
>  <MOLECULE>
CC(=O)Nc1ccc2c(c1)N(Cc1ccccc1)C(=O)c1cc(-c3ccc4[nH]ccc4c3)ccc1N2 [I-15]

>  <EC50>
≥ 750 nM

$$$$
>  <MOLECULE>
O=C1c2cc(-c3ccc(N4CCNCC4)cc3)ccc2Nc2ncc(F)cc2N1Cc1ccccc1 [I-12]

>  <EC50>
≥ 750 nM

$$$$

Data request, read-out EC50, for O=C1c2cc(-c3ccc(N4CCNCC4)cc3)ccc2Nc2ccc(F)cc2N1Cc1nccs1 [I-7] ≥ 750 nM

Proceed to CN1CCC(n2cc(-c3ccc4c(c3)C(=O)N(Cc3cccc5cc[nH]c35)c3cc(F)ccc3N4)cn2)CC1 [I-25] ≥ 750 nM

Proceed to O=C1c2cc(-c3ccc(N4CCNCC4)cc3)ccc2Nc2ccc(F)cc2N1Cc1cccc2cc[nH]c12 [I-18] < 250 nM

###

Reported pEC50 values for a set of compounds
target: EGFR T790M/L858R Ba/F3 cell line (Homo sapiens, UniProt P00533, T790M/L858R, cells depend on it); construct: The constructs were shuttled into the retroviral vector JP1540 using the BD Creator™ System (BD Biosciences); test: Ba/F3 cell proliferation (MTS assay); assay type: cell-based, murine; details: read-out: Ba/F3 cellular activity (EC50) T790M/L858R + Cetuximab (1 μg/mL); presence of 1 μg/mL cetuximab
pEC50: −log10 of the molar value.

Check out these entries, answers already filled in.
>  <SMILES CODE>
O=C1c2cc(-c3ccc(N4CCNCC4)cc3)ccc2Nc2ccc(F)cc2N1Cc1ccc2cc[nH]c2c1

>  <pEC50>
≤ 6.12

$$$$
>  <SMILES CODE>
O=C1c2cc(-c3ccc4[nH]ccc4c3)ccc2Nc2ccc(F)cc2N1Cc1cccnc1

>  <pEC50>
≤ 6.12

$$$$
>  <SMILES CODE>
CN1CCC(n2cc(-c3ccc4c(c3)C(=O)N(Cc3cccc(F)c3)c3cc(F)ccc3N4)cn2)CC1

>  <pEC50>
≤ 6.12

$$$$

# ---- query compound ----
Data request, read-out pEC50, for O=C1c2cc(-c3ccc(-c4cn[nH]c4)cc3)ccc2Nc2ccc(F)cc2N1Cc1ccccc1 6.30 to 6.60

###

target: EGFR T790M/L858R Ba/F3 cell line (Homo sapiens, UniProt P00533, T790M/L858R, cells depend on it); construct: The constructs were shuttled into the retroviral vector JP1540 using the BD Creator™ System (BD Biosciences); assay: Ba/F3 cell proliferation (MTS assay); assay type: cell-based, murine; details: read-out: Ba/F3 cellular activity (EC50) T790M/L858R + Cetuximab (1 μg/mL); presence of 1 μg/mL cetuximab
Reported EC50 values for a set of molecules

Check out these entries, answers already filled in.
>  <SMILES CODE>
O=C1c2cc(-c3ccc4[nH]ccc4c3)ccc2Nc2ccc(F)cc2N1Cc1nccs1

>  <MEASURED VALUE>
≥ 750 nM

$$$$
>  <SMILES CODE>
O=C1c2cc(-c3ccc(N4CCNCC4)cc3)ccc2Nc2ccc(F)cc2N1Cc1ccccc1

>  <MEASURED VALUE>
500 to 750 nM

$$$$
>  <SMILES CODE>
O=C1c2cc(-c3ccc(N4CCNCC4)cc3)ccc2Nc2ccccc2N1Cc1ccccc1

>  <MEASURED VALUE>
250 to 500 nM

$$$$
>  <SMILES CODE>
O=C1c2cc(-c3ccc4[nH]ccc4c3)ccc2Nc2ccc(F)cc2N1Cc1ccccc1

>  <MEASURED VALUE>
< 250 nM

$$$$

# ---- query molecule ----
Data request, read-out EC50, for O=C1c2cc(-c3ccc(N4CCNCC4)cc3)ccc2Nc2ccc(F)cc2N1c1ccccc1 ≥ 750 nM
